# TEST SYSTEM: Recombinant human his-tagged IGF 1R extracellular domain protein (human) (UniProt P08069)
# PROTOCOL NOTES: SPR, captured antibody, pH 7.4
Kd strictly under 3 nM means 1.0; at 3 nM or over means 0.0.

Please review the following examples before continuing.
VRDN-03108 (antibody, V domains shown) VH: QVQLVESGGGVVQPGRSLRLSCAASGFTFSSYSMHWVRQAPGKGLEWVAIIWFDGSSKYYVDSVKGRFTISRDNSKNTLYLQMNSLRAEDTAVYYCARELGRRYFDIWGRGTLVTVSS VL: EIVMTQSPATLSVSPGERATLSCRASQGVSSYLAWYQQKPGQAPRLLIYGASTRATGIPARFSGSGSGTEFTLTISSLQSEDFAVYYCQQRSRWPPWTFGQGTKLEIK : 0.0
VRDN-03130 (antibody, V domains shown) VH: EVQLVESGGGVVQPGRSLRLSCAASGFTFSSYSMHWVRQAPGKGLEWVAIIWFDGSSKYYVDSVKSRFTISRDNSKNTLYLQMNSLRAEDTAVYYCARELGRRYFDIWGQGTLVTVSS VL: EIVMTQSPATLSVSPGERATLSCRASQGVSSNLAWYQQKPGQAPRLLIYGASTRATGIPARFSGSGSGTEFTLTISSLQSEDFAVYYCQQRSRWPPWTFGGGTKLEIK : 1.0
VRDN-03137 (antibody, V domains shown) VH: EVQLVESGGGVVQPGRSLRLSCAASGFTFDDYAMHWVRQAPGKGLEWVAVIWYDGSSKYYADSVKGRFTISRDNSKNTLYLQMNSLRAEDTAVYYCARELGRRYFDIWGQGTLVTVSS VL: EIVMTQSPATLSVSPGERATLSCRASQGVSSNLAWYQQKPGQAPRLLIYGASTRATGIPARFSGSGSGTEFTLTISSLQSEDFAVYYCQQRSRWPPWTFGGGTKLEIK : 0.0
VRDN-03113 (antibody, V domains shown) VH: QVQLVESGGGVVQPGRSLRLSCAASGFTFSDHYMDWVRQAPGKGLEWVAIIWFDGSSKYYADSVKGRFTISRDNSKNTLYLQMNSLRAEDTAVYYCARELGRRYFDIWGRGTLVTVSS VL: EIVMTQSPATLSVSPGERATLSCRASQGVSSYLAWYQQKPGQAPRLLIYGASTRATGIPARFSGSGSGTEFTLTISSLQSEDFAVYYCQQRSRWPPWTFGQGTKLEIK : 1.0
VRDN-03127 (antibody, V domains shown) VH: EVQLVESGGGVVQPGRSLRLSCAASGFTFSDYTMHWVRQAPGKGLEWVAIIWFDGSSKYYADSVKSRFTISRDNSKNTLYLQMNSLRAEDTAVYYCARELGRRYFDIWGQGTLVTVSS VL: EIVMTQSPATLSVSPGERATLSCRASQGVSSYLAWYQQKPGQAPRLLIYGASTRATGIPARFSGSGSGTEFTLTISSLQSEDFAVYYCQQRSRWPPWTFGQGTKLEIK : 1.0

Strictly below 3 nM: is that where Kd of VRDN-03120 (antibody, V domains shown) VH: EVQLVESGGGVVQPGRSLRLSCAASGFTFSSYSMHWVRQAPGKGLEWVAVIWYDGSSKYYADSVKGRFTISRDNSKNTLYLQMNSLRAEDTAVYYCARELGRRYFDIWGQGTLVTVSS VL: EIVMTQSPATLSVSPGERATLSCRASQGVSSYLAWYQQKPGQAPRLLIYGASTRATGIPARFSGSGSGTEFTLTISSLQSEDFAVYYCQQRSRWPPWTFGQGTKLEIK sits? 0.0

Strictly below 3 nM: is that where Kd of VRDN-03091 (antibody, V domains shown) VH: QVQLVESGGGVVQPGRSLRLSCAASGFTFSSYGMHWVRQAPGKGLEWVAIIWFDGSSTYYADSVRGRFTISRDNSKNTLYLQMNSLRAEDTAVYYCARELGRRYFDLWGRGTLVTVSS VL: EIVLTQSPATLSLSPGERATLSCGASQSVSSSYLAWYQQKPGQAPRLLIYDASKRATGIPARFSGSGSGTDFTLTISSLEPEDFAVYYCQQRSKWPPWTFGQGTKVEIK sits? 0.0

Strictly below 3 nM: is that where Kd of VRDN-03043 (antibody, V domains shown) VH: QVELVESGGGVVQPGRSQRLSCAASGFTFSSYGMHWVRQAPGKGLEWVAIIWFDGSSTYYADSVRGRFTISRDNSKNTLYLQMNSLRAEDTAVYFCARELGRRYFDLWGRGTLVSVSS VL: EIVLTQSPATLSLSPGERATLSCRASQSHSSYLAWYQQKPGQAPRLLIYDASKRATGIPARFSGSGSGTDFTLTISSLEPEDFAVYYCQQRSKWPPWTFGQGTKVESK sits? 0.0

Strictly below 3 nM: is that where Kd of VRDN-03139 (antibody, V domains shown) VH: EVQLVESGGGVVQPGRSLRLSCAASGFTFSDYTMHWVRQAPGKGLEWVAIIWFDGSSKYYADSVKSRFTISRDNSKNTLYLQMNSLRAEDTAVYYCARELGRRYFDIWGQGTLVTVSS VL: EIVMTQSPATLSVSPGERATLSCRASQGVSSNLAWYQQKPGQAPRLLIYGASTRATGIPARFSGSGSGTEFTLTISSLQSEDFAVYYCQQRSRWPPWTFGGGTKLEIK sits? 1.0
